assay: Oral bioavailability in rat at 10 mg/kg
Assay type: ADME, organism-based
measurementParameters: in vivo
endpointLabel: bioavailability (%)
Give the quantity in %, number only.

For record `CC1(C(=O)N2CCC[C@@H](c3nc(-c4ccc(C(=O)Nc5cc(C(F)(F)F)ccn5)cc4)c4c(N)nccn34)C2)COC1` the listed bioavailability is 84

----------
assay: Volume of distribution at steady state in dog at 1 mg/kg, iv
Assay type: ADME, organism-based, Canis lupus familiaris
measurementParameters: in vivo, read-out: Vdss
Listed here: items and their measured Vd.

C[C@H]1CC[C@@H](c2nc(-c3ccc(C(=O)Nc4cc(C(F)(F)F)ccn4)cc3F)c3c(N)nccn23)CN1C(=O)C1CC1	0.65 L/kg

Now for the compound whose Vd we want.
For record `CC1(C(=O)N2CCC[C@@H](c3nc(-c4ccc(C(=O)Nc5cc(C(F)(F)F)ccn5)cc4F)c4c(N)nccn34)C2)COC1` the listed Vd is 2 L/kg

FYI, the data here is from ChEMBL document CHEMBL4715708.
